- Tested on: MS2 coat protein
- measurement_notes: apparent KD of MS2 coat protein; designed switch direction (-1 OFF switch, 1 ON switch): -1; higher = weaker reporter binding
- setup_conditions: input ligand: none
Mark F for apparent KD of MS2 coat protein values under 30 nM, and T for everything at or above.

[Q] Would you say ACAAGCUUGUAAUGAUUGAACAUGAGGAUCACCCAUGUAAAUGGAAGAACCAAUUUGAUAAGAUAAACUCGUCUUAU [JR_STOV1_Sub005] (Eterna round: R97, puzzle: Sensor, turn-off variant 1) shows apparent KD of MS2 coat protein at minimum 30 nM?
[A] T

[Q] Lookup UGCAGACGAGGAUAUAAAUGAUAUAACAUGAGGAUCACCCAUGUACGAUCGAAUGAUCGUUUAGAAGGCGUCUGCA [E5/11-A2] (Eterna round: R97, puzzle: Exclusion 5)
[A] F

[Q] Lookup UUCCCACAUGAGGAUCACCCAUGUGAGGAUAUGGGCGGCGCCGCAAAAGCGGCGCCGCCCAGAAGGCGCAUGAU [Malcxlusion 8 - Jieux - Exclusion 1] (Eterna round: R97, puzzle: Exclusion 1)
[A] F

[Q] Lookup UAGCAGCGAGGAUAUACAGACGGGUCCAGUACGUGUCUUGGACUUGAGGAUCACCCAAGUAGAAGGCGCCACAG [salish99_ex2_r4_604] (Eterna round: R97, puzzle: Exclusion 2)
[A] T

[Q] Lookup GCGCCAUCGUGAGAUGGCGUAUAUACAUGAGGAUCACCCAUGUAGGAUAUCGAUUGCUUUGCAGUCGAGAAGGGCGUGUAAUUU [JL ENG3 3.92] (Eterna round: R96, puzzle: Exclusion NG 3)
[A] T
